# Assay Target: T1, human SIGLEC-9-ECD-Fc recombinant fusion protein (human, UniProt Q9Y336 18-343)
# T1 construct: The range starts at residue 1, so it includes the signal peptide; No cleavage site is stated; Secreted from CHOK1SV cells and purified on Protein A; also called Siglec-9-ECD-huFc; S9-ECD-Fc
# T1 sequence (Q9Y336 18-343): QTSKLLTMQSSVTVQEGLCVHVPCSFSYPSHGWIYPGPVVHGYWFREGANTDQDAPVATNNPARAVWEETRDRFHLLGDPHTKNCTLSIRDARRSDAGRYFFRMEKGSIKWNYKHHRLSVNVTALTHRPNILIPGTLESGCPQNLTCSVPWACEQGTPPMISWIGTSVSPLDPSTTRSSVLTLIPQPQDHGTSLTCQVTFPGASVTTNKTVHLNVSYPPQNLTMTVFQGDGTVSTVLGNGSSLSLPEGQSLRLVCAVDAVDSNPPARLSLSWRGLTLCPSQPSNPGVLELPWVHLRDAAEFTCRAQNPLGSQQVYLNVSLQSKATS
# Test Details: BLI (ForteBio Octet Red), SIGLEC-9-ECD-Fc on anti-human Fc sensors, Fab in solution, monovalent

Binder	kon
Tf73 Fab (Fab, V domains shown, also called AK643-3 / AK628-1) VH: QVQLVQSGAEVKKPGASVKVSCKASDYTFTGYEMHWVRQAPGQGLEWMGAIDPEAGGTDYAQKFQGRVTMTADTSISTAYMELSRLRSDDTAVYYCTRVWLHWGQGTLVTVSS VL: DIVMTQSPDSLAVSLGERVTMNCKSSQSVLYSSNQKNYLAWYQQKPGQPPKMLIYWASTRESGVPDRFSGSGSGTDFTLTISSLQAEDVAVYYCHQYLSSNTFGQGTKLEIK	319000 M⁻¹ s⁻¹
Tf84 Fab (Fab) chain 1: QVQLVQSGAEVKKPGASVKVSCKASDYTFTDYEMHWVRQAPGQGLEWMGAINPESGGTDYAQKFQGRVTMTADTSISTAYMELSRLRSDDTAVYYCTRVWLHWGQGTLVTVSS chain 2: DIVMTQSPDSLAVSLGERVTMNCKSSQSVLYSSNQKNYLAWYQQKPGQPPKMLIYWASTRESGVPDRFSGSGSGTDFTLTISSLQAEDVAVYYCHQYLSSNTFGQGTKLEIK	1.32e+06 M⁻¹ s⁻¹
Tf71 Fab (Fab) chain 1: QVQLVQSGAEVKKPGASVKVSCKASGYTFTDYEMHWVRQAPGQGLEWMGAIDPEAGGTDYAQKFQGRVTMTADTSISTAYMELSRLRSDDTAVYYCTRVWLHWGQGTLVTVSS chain 2: DIVMTQSPDSLAVSLGERVTMNCKSSQSVLYSSNQKNYLAWYQQKPGQPPKMLIYWASTRESGVPDRFSGSGSGTDFTLTISSLQAEDVAVYYCHQYLSSNTFGQGTKLEIK	435000 M⁻¹ s⁻¹
